# ASSAY SYSTEM: D3 (Homo sapiens, UniProt P35462)
# Sequence (P35462 whole entry): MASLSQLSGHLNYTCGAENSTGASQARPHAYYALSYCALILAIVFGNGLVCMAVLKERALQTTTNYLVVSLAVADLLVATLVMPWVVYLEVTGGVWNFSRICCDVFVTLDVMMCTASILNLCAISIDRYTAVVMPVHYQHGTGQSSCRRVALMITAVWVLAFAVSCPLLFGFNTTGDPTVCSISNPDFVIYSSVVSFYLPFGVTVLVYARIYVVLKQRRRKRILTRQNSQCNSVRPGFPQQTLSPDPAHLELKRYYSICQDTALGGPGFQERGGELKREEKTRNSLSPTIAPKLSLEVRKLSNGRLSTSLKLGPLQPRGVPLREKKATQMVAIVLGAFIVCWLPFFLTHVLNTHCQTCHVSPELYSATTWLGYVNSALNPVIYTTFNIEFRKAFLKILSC
# EXPERIMENT NOTES: PDSP radioligand binding assay
# EXPERIMENTAL PARAMETERS: Table 5
METRIC NAME: Ki (nM)
Give bare numbers, in nM.

Input line: What Ki value was documented for this compound, COc1ccc(N2CCN(CCCNC(=O)Cn3c(=O)c4cccn4c4c(C)ccnc43)CC2)cc1 [Compound 1{3}] ?
Output line: 250

----------
# EXPERIMENT NOTES: Plasma protein binding, mouse
# Format: in vitro ADME
# EXPERIMENTAL PARAMETERS: plasma; mouse, 10 μM; read-out: bound to plasma protein (converted)
METRIC NAME: fraction unbound at 10 μM
Numbers only.

Input line: What fraction unbound at 10 μM value was documented for this compound, COc1ccc(N2CCN(CCCNC(=O)Cn3c(=O)c4cccn4c4c(C)ccnc43)CC2)cc1 ?
Output line: 0.199
